Origin of the recorded values: paper PMC11554605

biological target: human P2X4 (Homo sapiens, UniProt Q99571); construct: expressed in transfected cells; assay: Intracellular Ca2+ assay (Fura-2, FlexStation 3), agonist responses in 1321N1 cells stably expressing human P2X4; format: cell-based
Sequence (Q99571 whole entry): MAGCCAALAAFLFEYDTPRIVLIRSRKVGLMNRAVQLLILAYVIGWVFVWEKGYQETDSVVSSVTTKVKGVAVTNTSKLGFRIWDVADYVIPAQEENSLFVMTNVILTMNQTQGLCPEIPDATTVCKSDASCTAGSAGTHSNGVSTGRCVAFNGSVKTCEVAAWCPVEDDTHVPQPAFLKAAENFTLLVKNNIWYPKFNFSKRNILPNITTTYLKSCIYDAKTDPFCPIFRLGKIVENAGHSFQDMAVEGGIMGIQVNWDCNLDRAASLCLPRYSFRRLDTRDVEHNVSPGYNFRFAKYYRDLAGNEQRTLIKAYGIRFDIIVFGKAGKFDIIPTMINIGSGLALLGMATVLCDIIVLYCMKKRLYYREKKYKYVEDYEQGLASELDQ
readout type: EC50 (µM)
Number only, in µM; omit the unit.

Item under review: Nc1ncnc2c1ncn2C1OC(COP(=O)(O)CP(=O)(O)OP(=O)(O)O)C(O)C1O (stereo not drawn) [α,β-meATP, α,β-Methyleneadenosine 5′-triphosphate] . Reported EC50? 7

---

Molecular target: mouse P2X4 (Mus musculus)
Construct: expressed in transfected cells
Sequence (Q9JJX6 1-388): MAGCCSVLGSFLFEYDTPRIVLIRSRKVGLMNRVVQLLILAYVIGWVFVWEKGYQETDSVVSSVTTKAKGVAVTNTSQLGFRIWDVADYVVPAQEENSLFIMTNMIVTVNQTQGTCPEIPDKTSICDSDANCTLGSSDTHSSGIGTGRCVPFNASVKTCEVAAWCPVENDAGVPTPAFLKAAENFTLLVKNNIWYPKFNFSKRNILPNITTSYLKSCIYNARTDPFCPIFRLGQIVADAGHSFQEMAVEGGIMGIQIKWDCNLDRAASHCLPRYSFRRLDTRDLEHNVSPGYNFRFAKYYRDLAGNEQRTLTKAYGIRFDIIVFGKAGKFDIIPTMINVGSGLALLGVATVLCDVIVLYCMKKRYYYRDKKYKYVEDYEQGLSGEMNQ
Test: Intracellular Ca2+ assay (Fura-2, FlexStation 3), agonist responses in 1321N1 cells stably expressing mouse P2X4
Type: cell-based
Conditions: 1321-N1, read-out: Efficacy Mouse (maximal response to ligand as a percentage of maximal response to ATP)
// values below are reported Emax

Guide cases for Emax, answers given:
[
  {
    "molecule": "Nc1ncnc2c1ncn2C1OC(COP(=O)(O)OP(=O)(O)OP(=O)(O)O)C(OC(=O)c2ccc(C(=O)c3ccccc3)cc2)C1O (stereo not drawn)",
    "Emax": "27%"
  },
  {
    "molecule": "C#CCNP(=O)(O)OP(=O)(O)OP(=O)(O)OCC1OC(n2cnc3c(N)ncnc32)C(O)C1O (stereo not drawn) [γ-[(Propargyl)-imido]-ATP]",
    "Emax": "90%"
  },
  {
    "molecule": "Nc1ncnc2c1ncn2[C@@H]1O[C@H](CO[P@](=O)(O)O[P@](=O)(O)O[P@@](=O)(O)S)[C@@H](O)[C@H]1O [ATPγS, Adenosine-5′-O-(3-thio-triphosphate)]",
    "Emax": "45%"
  },
  {
    "molecule": "Nc1ncnc2c1ncn2C1OC(COP(=O)(O)CP(=O)(O)OP(=O)(O)O)C(O)C1O (stereo not drawn) [α,β-meATP, α,β-Methyleneadenosine 5′-triphosphate]",
    "Emax": "5%"
  },
  {
    "molecule": "Nc1ccn([C@@H]2O[C@H](COP(=O)(O)OP(=O)(O)OP(=O)(O)O)[C@@H](O)[C@H]2O)c(=O)n1 [CTP, Cytidine 5′-triphosphate]",
    "Emax": "89%"
  }
]

# input for lookup
What does the data say about its Emax? Entry: CSc1nc(N)c2ncn([C@@H]3O[C@H](COP(=O)(O)OP(=O)(O)OP(=O)(O)O)[C@@H](O)[C@H]3O)c2n1 [2-MeSATP, 2-(Methylthio)adenosine 5′-triphosphate] 65%
